Test: Quantitative High-Throughput drug screen in 47 multiple myeloma cell lines against the NCATS MIPE library collection: U266_ATCC cell viability assay (AID 1919864); also: nearly all actives have a fitted effect of over 35% in size
Settings: U266 myeloma viability, CellTiter-Glo ATP luminescence, 48 h; series mostly up to 45.8 µM
Source text: PI: Beverly A. Mock Ph.D. Laboratory of Cancer Biology and Genetics, Center for Cancer Research, National Cancer Institute, National Institute of Health, Bethesda, Maryland […] 5; Detector; 425V; Luminescence; Viewlux PerkinElmer. […] 1. […] Briefly, the corresponding myeloma cell lines were screened in 1,536-well plates with 500 cells, 5-uL per well for inhibition of cell viability (assessed by measuring ATP levels with CellTiterGlo). […]
Records with an inconclusive call do not appear. The source made the active and inactive calls. Calls follow the shape of the dose curve; as a rule, active = well fitted cell-killing curve with a large enough effect; inconclusive = small, poorly fitted or top-dose-only effect, or effect the other way; inactive = no such curve, though single readings can be large or run the other way.
Classes used: t for active, f for inactive

1) CCCCc1oc2ccccc2c1C(=O)c1cc(I)c(OCCN(CC)CC)c(I)c1 | t
2) COc1ccccc1OCC(O)CN1CCN(CC(=O)Nc2c(C)cccc2C)CC1 (stereo unspecified) | f
3) O=c1[nH]cc(F)c(=O)[nH]1 | t
4) Cn1c(=O)c2[nH]cnc2n(C)c1=O | t
5) CCC1(c2ccccc2)C(=O)NCNC1=O | t
6) CCc1cccc2c3c([nH]c12)C(CC)(CC(=O)O)OCC3 (stereo unspecified) | f
7) CN(C)C(=N)N=C(N)N | f
8) COc1nc(C)nc(Cl)c1NC1=NCCN1 | t
9) NCCS(=O)(=O)O | f
10) CC(C)NCC(O)c1ccc(O)c(O)c1 (stereo unspecified) | t
11) C[C@](N)(Cc1ccc(O)c(O)c1)C(=O)O | t
